# target-entity: human DGAT2 (hDGAT2) (Homo sapiens (Human))
# protocol-details: DGAT2 Enzymatic Activity Assay
# Assay type: biochemical
# assay-setup: hDGAT2 Sf-9 membrane prep; 13C18-triolein product by LC/MS/MS; 25 μM diolein, 5 μM 13C oleoyl-CoA
assay-metric: IC50 (µM)
Give bare numbers, in µM.

Go through the list and state IC50 for each entry.
1. CC(C)n1nc(-c2cccc(OC(F)F)c2)c2c1C[C@H](C(=O)N[C@@H](C)CO)CC2 [Example 65]
2. CCOc1cccc(-c2nn(C(C)C)c3c2CC[C@@H](C(=O)NC2(C)CCS(=O)(=O)CC2)C3)c1 [Example 33]
3. CC(n1nc(-c2cccc(OC(F)F)c2)c2c1C[C@H](C(=O)NC1(C)CCS(=O)(=O)CC1)CC2)C(C)(C)O (single isomer, unassigned) [Example 111b]
4. CC(C)n1nc(-c2cc(OCC(F)(F)F)ncc2F)c2c1C[C@H](C(=O)N[C@@]1(C)CCS(=O)(=O)C1)CC2 [Example 44]
5. CC(C)n1nc(-c2cc(OC(F)F)ccc2F)c2c1C[C@H](C(=O)N[C@@]1(C)CCS(=O)(=O)C1)CC2 [Example 28]

Response:
1: 7.26; 2: 0.0033; 3: 0.23; 4: 0.0053; 5: 0.0301

Please report IC50 for every entry that follows.
1. CC(C#N)n1nc(-c2cc(OC(F)F)ccc2F)c2c1C[C@H](C(=O)NC1(C)CS(=O)(=O)C1)CC2 (some centres unmarked) [Example 79]
2. C[C@]1(NC(=O)[C@H]2Cc3c(c(-c4cccc(OC(F)F)c4)nn3C3CCOCC3)C(F)(F)C2)CCS(=O)(=O)C1 (single isomer, unassigned) [Example 117b]
3. CC(C)n1nc(-c2cccc(OC(F)(F)C(F)F)c2)c2c1C[C@H](C(=O)NC1(C)CCS(=O)(=O)CC1)CC2 [Example 36]
4. CC(C)n1nc(-c2cc(OC(F)F)ncc2F)c2c1C[C@H](C(=O)N[C@@]1(C)CCS(=O)(=O)C1)CC2 [Example 41]
5. C[C@]1(NC(=O)[C@@H]2CCc3c(-c4cncc(OC(F)F)c4)nn(-c4ccc(F)cn4)c3C2)CCS(=O)(=O)C1 [Example 14]
6. CC(n1nc(-c2cc(OC(F)F)ccc2F)c2c1C[C@H](C(=O)NC1(C)CS(=O)(=O)C1)CC2)C(C)(C)O (single isomer, unassigned) [Example 110b]
7. C[C@]1(NC(=O)[C@@H]2CCc3c(-c4cccc(OC(F)F)c4)nn(Cc4ccccc4)c3C2)CCS(=O)(=O)C1 [Example 77]
8. CCOc1cc(-c2nn(C(C)C(C)(C)O)c3c2CC[C@@H](C(=O)NC2(C)CCS(=O)(=O)CC2)C3)c(F)cn1 (single isomer, unassigned) [Example 109b]

Response:
0.0591
0.178
0.353
0.139
0.0139
0.243
0.577
0.0307

Parameter requested: IC50. Apply to each item below.
1. CC(C)n1nc(-c2cccc(OC(F)F)c2)c2c1C[C@H](C(=O)NCCN1CCS(=O)(=O)CC1)CC2 [Example 70]
2. CC(C)n1nc(-c2cccc(OC(F)(F)F)c2)c2c1C[C@H](C(=O)NC1(C)CCS(=O)(=O)CC1)CC2 [Example 55]
3. O=C(N[C@@H]1CCC[C@H]1N1CCOCC1)C1CCc2c(-c3cccc(OC(F)F)c3)nn(-c3ccc(F)cn3)c2C1 (some centres unmarked) [Example 16]
4. CC(C)n1nc(-c2cc(OC(F)F)ccc2F)c2c1C[C@H](C(=O)NC1(C)CS(=O)(=O)C1)CC2 [Example 82]
5. CC1(NC(=O)[C@@H]2CCc3c(-c4cccc(OC(F)F)c4)nn(-c4ccc(F)cn4)c3C2)CC(F)(F)C1 [Example 7]

Response:
1. 18
2. 0.0866
3. 0.0669
4. 0.0308
5. 0.012

# IC50 of C[C@]1(NC(=O)[C@@H]2CCc3c(-c4ccccc4Cl)nn(-c4ccc(F)cc4)c3C2)CCS(=O)(=O)C1 (single isomer, unassigned) [Example 1b] = 0.0337

---

# target-entity: human DGAT2 (hDGAT2) (Homo sapiens (Human))
# protocol-details: DGAT2 Enzymatic Activity Assay
# Assay type: biochemical
# assay-setup: hDGAT2 Sf-9 membrane prep; 13C18-triolein product by LC/MS/MS; 25 μM diolein, 5 μM 13C oleoyl-CoA
# Protocol: Sf-9 insect cells were maintained in Grace's insect cell culture medium with 10% heated-inactivated fetal bovine serum, 1% Pluronic F-68 and 0.14 μg/ml Kanamycine sulfate at 27° C. in a shaker incubator. […] The protein concentration was determined with the Pierce™ BCA Protein Assay Kit (Thermo Fisher Scientific). […] DGAT2 activity was determined by measuring the amount of enzymatic product ^13C18-triolein (^13C-1,2,3-Tri(cis-9-octadecenoyl)glycerol) using the membrane prep mentioned above. […]
assay-metric: pIC50
Numbers only, as −log10 of the molar value.

Examples with answers:
compound="CC(n1nc(-c2cc(OCC(F)(F)F)ncc2F)c2c1C[C@H](C(=O)N[C@@]1(C)CCS(=O)(=O)C1)CC2)C(C)(C)O (single isomer, unassigned) [Example 112a]" target_entity="human DGAT2 (hDGAT2) (Homo sapiens (Human))" observed_result=7.95
compound="C[C@]1(NC(=O)C2CCc3c(-c4cccc(OC(F)F)c4)nn(-c4ncc(Cl)cn4)c3C2)CCS(=O)(=O)C1 (stereo partly drawn)" target_entity="human DGAT2 (hDGAT2) (Homo sapiens (Human))" observed_result=7.43
compound="CC(n1nc(-c2cc(OCC(F)(F)F)ncc2F)c2c1C[C@H](C(=O)N[C@@]1(C)CCS(=O)(=O)C1)CC2)C(C)(C)O (single isomer, unassigned) [Example 112b]" target_entity="human DGAT2 (hDGAT2) (Homo sapiens (Human))" observed_result=7.50
compound="CC(n1nc(-c2cccc(OC(F)F)c2)c2c1C[C@H](C(=O)NC1(C)CCS(=O)(=O)CC1)CC2)C(C)(C)O (single isomer, unassigned) [Example 111a]" target_entity="human DGAT2 (hDGAT2) (Homo sapiens (Human))" observed_result=5.68
compound=C[C@]1(NC(=O)[C@@H]2CCc3c(-c4cccc(OC(F)F)c4)nn(-c4ccc(F)cn4)c3C2)CCS(=O)(=O)C1 target_entity="human DGAT2 (hDGAT2) (Homo sapiens (Human))" observed_result=8.31
compound="CC(C(F)F)n1nc(-c2cc(OC(F)F)ccc2F)c2c1C[C@H](C(=O)NC1(C)CCS(=O)(=O)CC1)CC2 (single isomer, unassigned) [Example 49a]" target_entity="human DGAT2 (hDGAT2) (Homo sapiens (Human))" observed_result=7.49
compound=C[C@]1(NC(=O)[C@@H]2CCc3c(-c4cccc(C5CC(F)(F)C5)c4)nn(-c4ccc(F)cc4)c3C2)CCS(=O)(=O)C1 target_entity="human DGAT2 (hDGAT2) (Homo sapiens (Human))" observed_result=7.70
compound=[2H]C([2H])([2H])C([2H])([2H])Oc1cc(-c2nn(C(C)C)c3c2CC[C@@H](C(=O)NC2(C)CCS(=O)(=O)CC2)C3)c(F)cn1 target_entity="human DGAT2 (hDGAT2) (Homo sapiens (Human))" observed_result=7.29
compound="CC1(NC(=O)[C@@H]2CCc3c(-c4cc(OC(F)F)ccc4F)nn(C4CCCC4O)c3C2)CS(=O)(=O)C1 (single isomer, unassigned) [Example 114a]" target_entity="human DGAT2 (hDGAT2) (Homo sapiens (Human))" observed_result=7.35

--- query ---
The compound listed as CC1(NC(=O)[C@@H]2CCc3c(-c4cc(OC(F)F)ccc4F)nn(C4CCCC4O)c3C2)CS(=O)(=O)C1 (single isomer, unassigned) [Example 114d] has a reported pIC50 of 6.98

---

# target-entity: human DGAT2 (hDGAT2) (Homo sapiens (Human), UniProt Q96PD7)
# Sequence (Q96PD7 whole entry): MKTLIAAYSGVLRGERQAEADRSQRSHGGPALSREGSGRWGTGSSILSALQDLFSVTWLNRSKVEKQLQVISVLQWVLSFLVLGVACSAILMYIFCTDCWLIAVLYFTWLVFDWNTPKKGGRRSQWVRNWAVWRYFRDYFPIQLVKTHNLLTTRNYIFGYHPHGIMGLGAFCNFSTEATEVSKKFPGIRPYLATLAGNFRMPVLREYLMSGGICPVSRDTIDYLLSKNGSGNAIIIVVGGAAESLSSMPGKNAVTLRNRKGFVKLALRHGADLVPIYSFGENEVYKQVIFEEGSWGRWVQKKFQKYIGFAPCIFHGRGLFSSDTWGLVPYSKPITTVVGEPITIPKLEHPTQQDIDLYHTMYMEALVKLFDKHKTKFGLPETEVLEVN
# protocol-details: DGAT2 Enzymatic Activity Assay
# Format: biochemical
# assay-setup: hDGAT2 Sf-9 membrane prep; 13C18-triolein product by LC/MS/MS; 25 μM diolein, 5 μM 13C oleoyl-CoA
assay-metric: IC50 (nM)
Numbers only, in nM.

Some molecules with known IC50 results, for comparison:
molecule=CC1(NC(=O)[C@@H]2CCc3c(-c4cccc(OC(F)F)c4)nn(-c4ncc(F)cc4F)c3C2)CS(=O)(=O)C1 result_unit=nM observed_result=10.2
molecule="CC(n1nc(-c2cc(OC(F)F)ccc2F)c2c1C[C@H](C(=O)NC1(C)CS(=O)(=O)C1)CC2)C(C)(C)O (single isomer, unassigned) [Example 110a]" result_unit=nM observed_result=30.8

get_value(item= CCOc1cc(-c2nn(C(C)C(F)(F)F)c3c2CC[C@@H](C(=O)NC2(C)CCS(=O)(=O)CC2)C3)c(F)cn1 (single isomer, unassigned) [Example 53b] , readout=IC50) returns 10.3
